observable: viability at 5 µM (%)
One number for each entry, in %.

Asked: Entry CC(C)C[C@@H](NC(=O)[C@@H](Cc1ccccc1)NC(=O)CNC(=O)CNC(=O)[C@H](N)Cc1ccc(O)cc1)C(=O)N[C@H](CCCNC(=N)N)C(=O)N[C@H](CCCNC(=N)N)C(N)=O [SEQ ID NO. 1, tyr-Gly-Gly-phe-leu-arg-arg-NH2] : reported viability at 5 µM = ?
Given back: 95.8

* * *

observable: viability at 100 µM (%)
One number for each entry, in %.

Asked: Entry `CC(C)C[C@@H](NC(=O)[C@@H](Cc1ccccc1)NC(=O)CNC(=O)CNC(=O)[C@H](N)Cc1ccc(O)cc1)C(=O)N[C@H](CCCNC(=N)N)C(=O)N[C@H](CCCNC(=N)N)C(N)=O` : reported viability at 100 µM = ?
Given back: 94.4

* * *

observable: viability at 50 µM (%)
Answers are plain numbers, in %.

Asked: Entry CC(C)C[C@@H](NC(=O)[C@@H](Cc1ccccc1)NC(=O)CNC(=O)CNC(=O)[C@H](N)Cc1ccc(O)cc1)C(=O)N[C@H](CCCNC(=N)N)C(=O)N[C@H](CCCNC(=N)N)C(N)=O [SEQ ID NO. 1, tyr-Gly-Gly-phe-leu-arg-arg-NH2] : reported viability at 50 µM = ?
Given back: 99.1

* * *

observable: viability at 50 µM (%)
Give bare numbers, in %.

Asked: Entry CC(C)C[C@@H](NC(=O)[C@@H](Cc1ccccc1)NC(=O)CNC(=O)CNC(=O)[C@H](N)Cc1ccc(O)cc1)C(=O)N[C@H](CCCNC(=N)N)C(=O)N[C@H](CCCNC(=N)N)C(N)=O [SEQ ID NO. 1, tyr-Gly-Gly-phe-leu-arg-arg-NH2] : reported viability at 50 µM = ?
Given back: 101

* * *

observable: viability at 50 µM

Asked: Entry `CC(C)C[C@@H](NC(=O)[C@@H](Cc1ccccc1)NC(=O)CNC(=O)CNC(=O)[C@H](N)Cc1ccc(O)cc1)C(=O)N[C@H](CCCNC(=N)N)C(=O)N[C@H](CCCNC(=N)N)C(N)=O` : reported viability at 50 µM = ?
Given back: 101%

* * *

observable: viability at 5 µM (%)
One number for each entry, in %.

Asked: Entry `CC(C)C[C@@H](NC(=O)[C@@H](Cc1ccccc1)NC(=O)CNC(=O)CNC(=O)[C@H](N)Cc1ccc(O)cc1)C(=O)N[C@H](CCCNC(=N)N)C(=O)N[C@H](CCCNC(=N)N)C(N)=O` : reported viability at 5 µM = ?
Given back: 97.9

* * *

observable: viability at 5 µM (%)
Answers are plain numbers, in %.

Asked: Entry `CC(C)C[C@@H](NC(=O)[C@@H](Cc1ccccc1)NC(=O)CNC(=O)CNC(=O)[C@H](N)Cc1ccc(O)cc1)C(=O)N[C@H](CCCNC(=N)N)C(=O)N[C@H](CCCNC(=N)N)C(N)=O` : reported viability at 5 µM = ?
Given back: 100

The reported measurements were obtained from patent US20260001910A1.
